Target: UniProt P34949
Sequence (P34949 whole entry): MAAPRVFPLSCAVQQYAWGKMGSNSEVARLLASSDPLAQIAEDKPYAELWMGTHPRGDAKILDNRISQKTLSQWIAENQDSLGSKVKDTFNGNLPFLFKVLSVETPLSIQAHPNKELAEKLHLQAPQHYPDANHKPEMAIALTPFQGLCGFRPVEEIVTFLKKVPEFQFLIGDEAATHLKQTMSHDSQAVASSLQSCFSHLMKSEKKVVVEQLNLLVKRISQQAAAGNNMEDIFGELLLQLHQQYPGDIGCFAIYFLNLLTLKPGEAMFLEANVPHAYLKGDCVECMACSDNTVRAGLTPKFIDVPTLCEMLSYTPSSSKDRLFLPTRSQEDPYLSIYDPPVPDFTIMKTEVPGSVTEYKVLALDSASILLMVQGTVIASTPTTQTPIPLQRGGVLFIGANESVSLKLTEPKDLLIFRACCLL
Test: phosphomannose isomerase inhibition – biochemical, fluorescence intensity, confirmation (AID 1535)
Activity calls are given as the source filed them. Rule as the data show it: actives have a measured IC50 and inactives only a lower limit.
Thanks in advance; please answer with one of these: active, inactive

Task: Given "O=c1c2ccccc2sn1-c1ccc(Cl)c(S(=O)(=O)N2CCOCC2)c1" , state the outcome it received in this test.
Result: active

Task: Given "O=[N+]([O-])c1ccc(/N=c2\ssnc2Cl)c2ccccc12" , state the outcome it received in this test.
Result: inactive

Task: Given "Cc1ccc2nc(-n3sc4ccccc4c3=O)sc2c1" , state the outcome it received in this test.
Result: inactive

Task: Given "CN(C)c1ccc(/N=c2\ssnc2Cl)cc1" , state the outcome it received in this test.
Result: active

Task: Given "Cc1ccc(C)c(-n2sc3ccccc3c2=O)c1" , state the outcome it received in this test.
Result: active
